# assay explanation: NCI Yeast Anticancer Drug Screen. Data for the mlh1 rad18 strain (AID 175)
# details: S. cerevisiae mlh1 rad18 strain growth inhibition; at 50.0 µM; stronger effect = higher value
This is part of a sample that, as a whole, favours compounds with a hit. Of some 79,000 tested, about 15% had one in any assay.
Known growth inhibition of a selection of compounds
// note: answer is a bare numeric in %

Look over these answered cases.
Clc1ccc(C=Nc2ccccc2)c(Cl)c1: 26.6
OC1(c2ccc(F)cc2)CCNCC1: 7.2
Nc1nnnn1NC(=O)NCCCl: -26.5
COC(=O)C(=O)C1CSC2=C(CS(=O)(=O)c3ccccc32)C1=O (stereo not given): -2.1

Alright, here's another compound for you.
Q: Recorded growth inhibition for O/N=C/c1cc2c(cc1Br)OCO2 , please?
Result: -17.6

Every entry's value here was drawn from PubChem BioAssay (NCI).
